targetDesc: hErbB3.mmh (soluble monomeric human ErbB3 extracellular domain with C-terminal myc-myc-hexahistidine tag) (human, UniProt P21860 20-642)
Sequence (P21860 other isoform, or with tags, fused parts or gaps): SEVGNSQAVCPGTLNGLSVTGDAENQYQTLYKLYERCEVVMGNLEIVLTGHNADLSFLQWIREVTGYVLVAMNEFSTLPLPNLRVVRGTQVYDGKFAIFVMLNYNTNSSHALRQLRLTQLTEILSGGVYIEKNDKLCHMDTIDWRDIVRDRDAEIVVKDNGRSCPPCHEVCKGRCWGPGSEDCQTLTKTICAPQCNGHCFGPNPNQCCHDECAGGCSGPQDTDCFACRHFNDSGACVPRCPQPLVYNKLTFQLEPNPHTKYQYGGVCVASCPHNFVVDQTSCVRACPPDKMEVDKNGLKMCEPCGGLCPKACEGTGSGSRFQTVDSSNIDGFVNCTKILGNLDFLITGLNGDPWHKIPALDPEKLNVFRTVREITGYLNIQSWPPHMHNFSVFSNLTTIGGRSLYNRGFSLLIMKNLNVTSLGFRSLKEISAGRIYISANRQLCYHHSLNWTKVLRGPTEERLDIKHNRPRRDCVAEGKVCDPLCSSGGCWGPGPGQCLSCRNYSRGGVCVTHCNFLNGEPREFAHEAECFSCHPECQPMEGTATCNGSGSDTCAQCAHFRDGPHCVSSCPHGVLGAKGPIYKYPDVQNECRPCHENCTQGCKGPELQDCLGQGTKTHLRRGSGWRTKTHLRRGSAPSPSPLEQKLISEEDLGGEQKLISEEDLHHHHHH
experimentNotes: SPR (Biacore), 25 C, mAb capture format
Below, each entry is listed alongside its reported T½.
API: value field is a number in min; no unit string.

// known answers, use as guide
INSERT INTO assay_data (binder, u, experimentalresult) VALUES
  ('H4H1819N (antibody, V domains shown, Human IgG4 Fc (H4H prefix); same variable domains as H1M1819N) VH: EVQLVESGGGVVRPGGSLRLSCAASGFTFDDYAMHWVRQAPGKGLEWVAGISWNSGSIDYADSVKGRFTISRDNAKNSLYLQMNSLRAGDTALYYCAKDILDLDYYGLDVWGQGTTVTVSS VL: DIQMTQSPSSLSASVGDRVTITCRASQDISSYLAWYQQKPGKVPNLLIYDASSLQSGVPSRFSGSGSGTDFTLTLSSLQPEDFASYYCQNYNSAPYTFGQGTKLEIK', 'min', 33),
  ('H2M1936N (antibody, V domains shown, Hybridoma chimeric antibody: human variable domains, mouse IgG2 Fc (H2M prefix)) VH: EMQLVESGGGLVQPDRSLRLSCAASGFNFDNYAIHWVRQAPGKGLEWVSGISWNSGNIGYADSVKGRFTISRDNAKNSLFLLMNSLRPDDSALYYCTRGYNWNALSPMDVWGQGTTVTVSS VL: DIQMTQSPSSLSASVGDRVTVTCRASQGISNYLAWYQQKPGKVPKLLIYAASTLQSGVPSRFSGSGSGTDFTLTISSLQPEDVASYYCQNYNSAPMTFGQGTKVEIK', 'min', 41),
  ('H4H2094P (antibody, V domains shown, Fully human, human IgG4 Fc (H4H prefix)) VH: EVQLVESGGGLVQPGGSLRLSCAASGFTFSSYDMHWVRQATGKGLEWVSAIGPAGDTYYPVSAMGRFTISRDDAKNSLYLQMNSLRAGDTAVYYCAREGVTIRPDDYFGLDVWGQGTTVTVSA VL: DIQLTQSPSFLSASVGDRVTITCWASQGISDYLAWYQKKPGKAPQLLIYAATTLQSGVPSRFSGSGSGTEFTLTISSLQPEDFATYYCQQLNTYPLTFGGGTKVEIKR', 'min', 780),
  ('H2M1827N (antibody, V domains shown, Hybridoma chimeric antibody: human variable domains, mouse IgG2 Fc (H2M prefix)) VH: EVQLVESGGGVVRPGGSLRLSCAASGFTFDDYGMSWVRQAPGKGLECVSGISWNGGNTDYADSVKGRFTISRDNAKNSLYLQMNSLRAEDTALYHCARDGGDWDYFDLWGRGTLVTVSS VL: EILMTQSPATLSVSPGERATLSCRASQSVSSNLAWYQQKPGQAPRLLIYGASTRATGIPARFSGSGSGTEFTLTISSLQSEDFAIYYCQEYNDWPLTFGGGTKVEIK', 'min', 129);

Next item in the queue.
H2M1938N (antibody, V domains shown, Hybridoma chimeric antibody: human variable domains, mouse IgG2 Fc (H2M prefix)) VH: EVQLVESGGGVVRPGGSLRLSCAASGFTFDDYGMSWVRQVPGKGLEWVSGLNWNGGITGYTDSVKGRFTISRDNAKNSLYLQMNSLRAEDTAFYHCARDSGDQDAFDIWGQGTMVTVSS VL: QIVMTQSPATLSVSPGERATLSCRASQSITPYLAWYQQKPGQTPRLLIYGVSTRATGIPARFSGSGSGTEFTLTISSLQSEDFAVYYCQQYDNWYTFGQGTKLEIK has a reported T½ of 80

Cited source for all entries: patent US20140072563A1
